TARGET: mutant CFTR (Homo sapiens, UniProt P13569, DEL508-508)
Construct: expressed in transfected cells
Sequence (P13569 with tags, fused parts or gaps DEL508-508): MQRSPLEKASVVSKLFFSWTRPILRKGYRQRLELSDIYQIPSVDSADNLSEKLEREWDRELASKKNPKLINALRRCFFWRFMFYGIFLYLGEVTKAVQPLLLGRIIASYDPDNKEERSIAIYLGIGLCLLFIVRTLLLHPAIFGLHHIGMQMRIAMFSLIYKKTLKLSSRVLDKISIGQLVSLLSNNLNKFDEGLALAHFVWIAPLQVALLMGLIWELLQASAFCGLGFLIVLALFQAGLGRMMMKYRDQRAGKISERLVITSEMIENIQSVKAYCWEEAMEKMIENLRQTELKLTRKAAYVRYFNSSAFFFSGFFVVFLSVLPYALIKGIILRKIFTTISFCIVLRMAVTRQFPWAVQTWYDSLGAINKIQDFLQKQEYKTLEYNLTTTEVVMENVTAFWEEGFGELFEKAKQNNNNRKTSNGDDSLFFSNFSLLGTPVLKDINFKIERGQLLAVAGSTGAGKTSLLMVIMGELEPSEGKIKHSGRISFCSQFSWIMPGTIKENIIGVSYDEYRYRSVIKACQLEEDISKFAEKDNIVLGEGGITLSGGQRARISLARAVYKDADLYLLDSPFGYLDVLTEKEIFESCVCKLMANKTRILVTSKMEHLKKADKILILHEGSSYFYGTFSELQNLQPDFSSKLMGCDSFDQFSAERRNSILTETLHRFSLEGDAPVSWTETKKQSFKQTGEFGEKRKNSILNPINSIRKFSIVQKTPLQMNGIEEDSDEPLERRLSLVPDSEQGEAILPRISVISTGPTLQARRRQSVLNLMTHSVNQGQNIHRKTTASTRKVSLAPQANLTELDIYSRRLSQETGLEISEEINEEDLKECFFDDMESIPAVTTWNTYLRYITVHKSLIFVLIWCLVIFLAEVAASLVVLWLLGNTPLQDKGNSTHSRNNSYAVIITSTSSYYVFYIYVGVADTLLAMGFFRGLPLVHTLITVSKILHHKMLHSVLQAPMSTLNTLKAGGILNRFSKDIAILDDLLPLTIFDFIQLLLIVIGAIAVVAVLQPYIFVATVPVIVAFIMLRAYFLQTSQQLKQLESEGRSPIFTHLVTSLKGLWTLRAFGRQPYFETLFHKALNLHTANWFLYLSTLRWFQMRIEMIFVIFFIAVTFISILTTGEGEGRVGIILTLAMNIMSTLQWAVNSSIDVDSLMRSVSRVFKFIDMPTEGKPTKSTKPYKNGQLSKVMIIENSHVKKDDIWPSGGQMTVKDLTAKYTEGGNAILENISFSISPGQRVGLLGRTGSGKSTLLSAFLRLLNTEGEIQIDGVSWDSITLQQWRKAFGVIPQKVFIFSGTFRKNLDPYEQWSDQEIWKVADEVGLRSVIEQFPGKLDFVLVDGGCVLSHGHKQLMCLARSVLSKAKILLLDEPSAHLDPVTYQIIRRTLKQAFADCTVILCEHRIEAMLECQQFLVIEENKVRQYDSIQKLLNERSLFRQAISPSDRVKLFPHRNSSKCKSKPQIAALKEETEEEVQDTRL
ASSAY INFO: Fluorescence (HS-YFP) assay for CFTR activity, corrector assay
Assay type: cell-based
MEASUREMENT SETUP: CFBE41o- and FRT cells with stable expression of mutant CFTR, read-out: activity (EC50)
Counter-ions that a name gives are not always drawn.
Here, each record is paired with measured EC50 data.
QUANTITY MEASURED: EC50

>  <COMPOUND>
Cc1nc2cc(F)c(N(C)C(=O)c3cccc(-n4nc(C(F)(F)F)c5c4CCN(C(=O)OC(C)(C)C)C5)c3)cc2o1

>  <TARGET>
mutant CFTR (Homo sapiens, UniProt P13569, DEL508-508)

>  <ASSAY RESULT>
< 1 µM

$$$$
>  <COMPOUND>
Cc1nc2ncc(N(C)C(=O)c3cccc(-n4nc(C(F)(F)F)c5c4C(Oc4ccc(C(=O)O)cc4)COC5)c3)cc2o1 (racemic)

>  <TARGET>
mutant CFTR (Homo sapiens, UniProt P13569, DEL508-508)

>  <ASSAY RESULT>
< 1 µM

$$$$
>  <COMPOUND>
CN(C(=O)c1cccc(-n2nc(C(F)(F)F)c3c2C[C@@H]2CC[C@H]3N2C(=O)OC(C)(C)C)c1)c1ccc2c(c1)OCO2 (single isomer, unassigned)

>  <TARGET>
mutant CFTR (Homo sapiens, UniProt P13569, DEL508-508)

>  <ASSAY RESULT>
< 1 µM

$$$$
>  <COMPOUND>
CN(C(=O)c1cccc(-n2nc(C(F)(F)F)c3c2C(Oc2cc(C(=O)O)ccn2)CCC3)c1)c1ccc2c(c1)OC(F)(F)O2 (stereo not shown) [Compound 182]

>  <TARGET>
mutant CFTR (Homo sapiens, UniProt P13569, DEL508-508)

>  <ASSAY RESULT>
< 1 µM

$$$$
>  <COMPOUND>
COC(=O)c1ccc(S(=O)(=O)N2C3CCC2c2c(C(F)(F)F)nn(-c4cccc(C(=O)N(C)c5ccc6c(c5)OCO6)c4)c2C3)cc1 (stereo not shown)

>  <TARGET>
mutant CFTR (Homo sapiens, UniProt P13569, DEL508-508)

>  <ASSAY RESULT>
< 1 µM

$$$$
>  <COMPOUND>
COc1cc(N(C)C(=O)c2cccc(-n3nc(C(F)(F)F)c4c3C(Oc3ccc(C(=O)O)cc3)CCC4)c2)ccc1F (racemic)

>  <TARGET>
mutant CFTR (Homo sapiens, UniProt P13569, DEL508-508)

>  <ASSAY RESULT>
> 2 µM

$$$$
>  <COMPOUND>
COC(=O)N1CCc2c(c(C(F)(F)F)nn2-c2cccc(C(=O)N(C)c3ccc4c(c3)OCO4)c2)C1

>  <TARGET>
mutant CFTR (Homo sapiens, UniProt P13569, DEL508-508)

>  <ASSAY RESULT>
< 1 µM

$$$$
>  <COMPOUND>
COc1cc(N(C)C(=O)c2cccc(-n3nc(C(F)(F)F)c4c3CCN(C(=O)C(C)(C)C)C4)c2)ccn1

>  <TARGET>
mutant CFTR (Homo sapiens, UniProt P13569, DEL508-508)

>  <ASSAY RESULT>
< 1 µM

$$$$
>  <COMPOUND>
CN(C(=O)c1cccc(-n2nc(C(F)(F)F)c3c2C(Oc2ccc(C(=O)O)cc2)CNC3)c1)c1ccc2c(c1)OC(F)(F)O2 (racemic) [Compound 273, hydrochloride]

>  <TARGET>
mutant CFTR (Homo sapiens, UniProt P13569, DEL508-508)

>  <ASSAY RESULT>
< 1 µM

$$$$
>  <COMPOUND>
CN(C(=O)c1cccc(-n2nc(C(F)(F)F)c3c2C[C@H]2CC[C@@H]3N2C)c1)c1ccc2c(c1)OCO2 (single isomer, unassigned)

>  <TARGET>
mutant CFTR (Homo sapiens, UniProt P13569, DEL508-508)

>  <ASSAY RESULT>
< 1 µM

$$$$
>  <COMPOUND>
CN(C(=O)c1cccc(-n2nc(C(F)(F)F)c3c2C(Oc2ccc(C(=O)O)cc2)CCC3)c1)c1cnc(OC(F)F)nc1 (racemic)

>  <TARGET>
mutant CFTR (Homo sapiens, UniProt P13569, DEL508-508)

>  <ASSAY RESULT>
1 to 2 µM

$$$$
>  <COMPOUND>
CN(c1ccc2c(c1)OCO2)S(=O)(=O)c1cccc(-n2nc(C(F)(F)F)c3c2CCN(C(=O)OC(C)(C)C)C3)c1

>  <TARGET>
mutant CFTR (Homo sapiens, UniProt P13569, DEL508-508)

>  <ASSAY RESULT>
> 2 µM

$$$$
>  <COMPOUND>
Cc1nc2ncc(N(C)C(=O)c3cccc(-n4nc(C(F)(F)F)c5c4C(Oc4ccc(C(=O)O)cc4)CCC5)c3)cc2o1 (single isomer, unassigned) [Compound 286]

>  <TARGET>
mutant CFTR (Homo sapiens, UniProt P13569, DEL508-508)

>  <ASSAY RESULT>
1 to 2 µM

$$$$
>  <COMPOUND>
CN(C(=O)c1cccc(-n2nc(C(F)(F)F)c3c2CC2CCC3N2C)c1)c1ccc2c(c1)OCO2 (racemic)

>  <TARGET>
mutant CFTR (Homo sapiens, UniProt P13569, DEL508-508)

>  <ASSAY RESULT>
< 1 µM

$$$$
>  <COMPOUND>
CN(C(=O)c1cccc(-n2nc(C(F)(F)F)c3c2CCN(CCCC(=O)O)C3)c1)c1ccc2c(c1)OCO2

>  <TARGET>
mutant CFTR (Homo sapiens, UniProt P13569, DEL508-508)

>  <ASSAY RESULT>
> 2 µM

$$$$
>  <COMPOUND>
CN(C(=O)c1cccc(-n2nc(C(F)(F)F)c3c2C(Oc2ccc(C(=O)O)cc2)COC3)c1)c1ccnc(OC(F)F)c1 (racemic) [Compound 270]

>  <TARGET>
mutant CFTR (Homo sapiens, UniProt P13569, DEL508-508)

>  <ASSAY RESULT>
< 1 µM

$$$$
